FYI, the data here is from ChEMBL document CHEMBL2029200.

# Experiment summary: Clearance in beagle dog at 0.5 mg/kg, iv
# Format: ADME, organism-based, Canis lupus familiaris
# Set-up: dose 0.5 mg/kg, route intravenous
# Reported conditions: in vivo

| Structure notation | Units | clearance |
| --- | --- | --- |
| C[C@H]1c2c([nH]c3ccc(C(F)(F)F)cc23)C[C@H]2CCN(CCC3(C(=O)O)CCCCC3)C[C@@H]21 | mL/min/kg | 8.83 |

----------
# Experiment summary: Clearance in mouse at 0.5 mg/kg, iv
# Format: ADME, organism-based
# Set-up: dose 0.5 mg/kg, route intravenous
# Reported conditions: in vivo

| Structure notation | Units | clearance |
| --- | --- | --- |
| C[C@H]1c2c([nH]c3ccc(C(F)(F)F)cc23)C[C@H]2CCN(CCC3(C(=O)O)CCCCC3)C[C@@H]21 | mL/min/kg | 10.7 |

----------
# Target system: 5-hydroxytryptamine receptor 2A (Homo sapiens, UniProt P28223)
# Sequence (P28223 whole entry): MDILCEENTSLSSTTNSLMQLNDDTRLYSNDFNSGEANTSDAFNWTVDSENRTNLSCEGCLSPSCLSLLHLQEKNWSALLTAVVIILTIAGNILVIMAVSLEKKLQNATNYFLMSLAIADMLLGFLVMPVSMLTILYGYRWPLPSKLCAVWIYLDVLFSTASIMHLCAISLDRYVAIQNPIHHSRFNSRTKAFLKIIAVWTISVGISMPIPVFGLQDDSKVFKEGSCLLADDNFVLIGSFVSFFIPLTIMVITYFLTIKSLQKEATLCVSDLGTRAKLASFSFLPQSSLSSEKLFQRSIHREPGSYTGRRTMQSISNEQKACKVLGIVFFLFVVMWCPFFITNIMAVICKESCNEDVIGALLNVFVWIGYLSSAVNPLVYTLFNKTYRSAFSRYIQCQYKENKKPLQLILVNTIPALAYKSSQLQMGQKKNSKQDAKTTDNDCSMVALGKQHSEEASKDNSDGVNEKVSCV
pKi: −log10 of the molar value.
Assay endpoint: pKi

| Structure notation | Assay endpoint | Result |
| --- | --- | --- |
| C[C@H]1c2c([nH]c3ccc(C(F)(F)F)cc23)C[C@H]2CCN(CCC3(C(=O)O)CCCCC3)C[C@@H]21 | pKi | < 5.70 |

----------
# Experiment summary: Ratio of drug uptake in CSF to plasma of rat at 10 mg/kg, po
# Assay type: ADME, organism-based
# Parameters: dose 10 mg/kg, route oral
# Reported conditions: CSF and plasma
Assay endpoint: Kp

| Structure notation | Result |
| --- | --- |
| C[C@H]1c2c([nH]c3ccc(C(F)(F)F)cc23)C[C@H]2CCN(CCC3(C(=O)O)CCCCC3)C[C@@H]21 | 0.21 |

----------
# Experiment summary: Plasma concentration in iv dosed rhesus monkey after 45 mins
# Type: ADME, organism-based, Macaca mulatta
Assay endpoint: concentration at 0.75 h (µM)

| Structure notation | Readout number |
| --- | --- |
| C[C@H]1c2c([nH]c3ccc(C(F)(F)F)cc23)C[C@H]2CCN(CCC3(C(=O)O)CCCCC3)C[C@@H]21 | 6.5 |

----------
# Experiment summary: Ratio of drug uptake in blood to plasma of rat at 10 mg/kg, po
# Format: ADME, organism-based
# Set-up: dose 10 mg/kg, route oral
# Reported conditions: blood and plasma
Assay endpoint: blood plasma ratio

| Structure notation | Assay endpoint | Result |
| --- | --- | --- |
| C[C@H]1c2c([nH]c3ccc(C(F)(F)F)cc23)C[C@H]2CCN(CCC3(C(=O)O)CCCCC3)C[C@@H]21 | blood plasma ratio | 0.79 |

----------
# Target system: Voltage-gated inwardly rectifying potassium channel KCNH2 (Homo sapiens, UniProt Q12809)
# Sequence (Q12809 whole entry): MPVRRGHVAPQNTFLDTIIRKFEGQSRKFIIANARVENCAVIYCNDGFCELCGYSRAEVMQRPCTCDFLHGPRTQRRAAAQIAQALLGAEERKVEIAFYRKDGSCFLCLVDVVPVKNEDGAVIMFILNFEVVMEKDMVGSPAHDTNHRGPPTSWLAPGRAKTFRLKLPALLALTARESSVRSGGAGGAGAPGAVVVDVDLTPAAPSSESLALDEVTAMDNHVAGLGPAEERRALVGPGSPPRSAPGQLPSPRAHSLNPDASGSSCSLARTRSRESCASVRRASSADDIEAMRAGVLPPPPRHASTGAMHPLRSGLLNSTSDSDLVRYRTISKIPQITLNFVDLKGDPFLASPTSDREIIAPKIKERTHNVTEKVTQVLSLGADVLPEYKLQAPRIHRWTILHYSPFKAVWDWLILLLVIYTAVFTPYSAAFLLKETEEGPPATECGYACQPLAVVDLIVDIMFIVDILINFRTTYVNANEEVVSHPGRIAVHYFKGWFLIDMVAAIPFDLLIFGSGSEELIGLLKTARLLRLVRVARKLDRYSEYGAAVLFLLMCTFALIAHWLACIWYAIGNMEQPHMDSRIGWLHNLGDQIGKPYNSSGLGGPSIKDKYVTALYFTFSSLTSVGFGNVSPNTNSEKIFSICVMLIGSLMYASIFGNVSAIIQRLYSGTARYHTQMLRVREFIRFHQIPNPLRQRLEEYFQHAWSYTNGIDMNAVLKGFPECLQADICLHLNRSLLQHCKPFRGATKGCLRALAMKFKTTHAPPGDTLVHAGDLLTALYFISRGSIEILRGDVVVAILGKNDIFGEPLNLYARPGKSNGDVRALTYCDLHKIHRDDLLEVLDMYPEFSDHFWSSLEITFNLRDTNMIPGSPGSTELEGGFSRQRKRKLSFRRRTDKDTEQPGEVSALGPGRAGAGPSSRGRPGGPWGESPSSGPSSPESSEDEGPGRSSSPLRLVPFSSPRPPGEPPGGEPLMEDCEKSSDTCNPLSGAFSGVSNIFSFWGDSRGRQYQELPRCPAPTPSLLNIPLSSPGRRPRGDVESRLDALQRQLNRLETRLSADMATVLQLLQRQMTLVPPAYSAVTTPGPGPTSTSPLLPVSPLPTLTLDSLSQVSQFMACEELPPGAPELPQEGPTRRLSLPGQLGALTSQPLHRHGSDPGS
pIC50: −log10 of the molar value.

| Structure notation | Target system | Relation qualifier | pIC50 |
| --- | --- | --- | --- |
| C[C@H]1c2c([nH]c3ccc(C(F)(F)F)cc23)C[C@H]2CCN(CCC3(C(=O)O)CCOCC3)C[C@@H]21 | Voltage-gated inwardly rectifying potassium channel KCNH2 (Homo sapiens, UniProt Q12809) | < | 5.30 |
| C[C@H]1c2c([nH]c3ccc(C(F)(F)F)cc23)C[C@H]2CCN(CCCC3(C(=O)O)CCOCC3)C[C@@H]21 | Voltage-gated inwardly rectifying potassium channel KCNH2 (Homo sapiens, UniProt Q12809) | = | 6.52 |
| C[C@H]1c2c([nH]c3ccc(C(F)(F)F)cc23)C[C@H]2CCN(CCCC3CCOCC3)C[C@@H]21 | Voltage-gated inwardly rectifying potassium channel KCNH2 (Homo sapiens, UniProt Q12809) | = | 7.52 |
| C[C@H]1c2c([nH]c3ccc(C(F)(F)F)cc23)C[C@H]2CCN(CCC3(C(=O)O)CCCCC3)C[C@@H]21 | Voltage-gated inwardly rectifying potassium channel KCNH2 (Homo sapiens, UniProt Q12809) | < | 5.30 |

----------
# Experiment summary: Volume of distribution at steady state in beagle dog at 0.5 mg/kg, iv
# Format: ADME, organism-based, Canis lupus familiaris
# Parameters: dose 0.5 mg/kg, route intravenous
# Reported conditions: in vivo, read-out: Vdss
Assay endpoint: Vd (L/kg)

| Structure notation | Readout number |
| --- | --- |
| C[C@H]1c2c([nH]c3ccc(C(F)(F)F)cc23)C[C@H]2CCN(CCC3(C(=O)O)CCCCC3)C[C@@H]21 | 2.2 |

----------
# Target system: Melanin-concentrating hormone receptor 2 (Homo sapiens, UniProt Q969V1)
# Sequence (Q969V1 whole entry): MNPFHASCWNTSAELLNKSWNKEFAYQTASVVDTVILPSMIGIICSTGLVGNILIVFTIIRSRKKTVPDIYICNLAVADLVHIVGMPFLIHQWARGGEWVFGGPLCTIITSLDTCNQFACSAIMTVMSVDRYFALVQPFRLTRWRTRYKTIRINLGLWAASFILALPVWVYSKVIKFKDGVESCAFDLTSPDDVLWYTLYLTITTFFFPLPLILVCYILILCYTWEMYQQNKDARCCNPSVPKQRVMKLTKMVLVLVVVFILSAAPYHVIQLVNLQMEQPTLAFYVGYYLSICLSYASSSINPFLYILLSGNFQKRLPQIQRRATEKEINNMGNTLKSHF
# Experiment summary: Antagonist activity at human MCHR2 assessed inhibition of MCH-mediated intracellular Ca2+ calcium mobilization

| Structure notation | Target system | IC50 |
| --- | --- | --- |
| C[C@H]1c2c([nH]c3ccc(C(F)(F)F)cc23)C[C@H]2CCN(CCC3(C(=O)O)CCCCC3)C[C@@H]21 | Melanin-concentrating hormone receptor 2 (Homo sapiens, UniProt Q969V1) | > 10 µM |

----------
# Experiment summary: Mean residence time in mouse at 3 mg/kg, po
# Format: ADME, organism-based
# Design: dose 3 mg/kg, route oral
# Reported conditions: in vivo
Assay endpoint: MRT (h)

| Structure notation | Readout number |
| --- | --- |
| C[C@H]1c2c([nH]c3ccc(C(F)(F)F)cc23)C[C@H]2CCN(CCC3(C(=O)O)CCCCC3)C[C@@H]21 | 5.8 |

----------
# Target system: D(1A) dopamine receptor (Homo sapiens, UniProt P21728)
# Sequence (P21728 whole entry): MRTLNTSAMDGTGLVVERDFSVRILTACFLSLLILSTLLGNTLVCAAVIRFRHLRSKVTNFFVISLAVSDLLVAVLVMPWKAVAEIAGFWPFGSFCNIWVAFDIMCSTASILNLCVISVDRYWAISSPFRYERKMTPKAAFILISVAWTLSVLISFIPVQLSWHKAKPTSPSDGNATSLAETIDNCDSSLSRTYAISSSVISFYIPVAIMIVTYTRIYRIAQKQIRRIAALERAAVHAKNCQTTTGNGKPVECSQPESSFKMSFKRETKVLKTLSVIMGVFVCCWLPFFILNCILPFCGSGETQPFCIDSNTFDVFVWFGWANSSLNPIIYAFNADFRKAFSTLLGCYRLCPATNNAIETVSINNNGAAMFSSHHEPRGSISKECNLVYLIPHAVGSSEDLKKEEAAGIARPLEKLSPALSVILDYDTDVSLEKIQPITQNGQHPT
# Experiment summary: Binding affinity to dopamine D1 receptor
pKi: −log10 of the molar value.

| Structure notation | Target system | pKi |
| --- | --- | --- |
| C[C@H]1c2c([nH]c3ccc(C(F)(F)F)cc23)C[C@H]2CCN(CCC3(C(=O)O)CCCCC3)C[C@@H]21 | D(1A) dopamine receptor (Homo sapiens, UniProt P21728) | < 5.70 |

----------
# Target system: Voltage-gated inwardly rectifying potassium channel KCNH2 (Homo sapiens)

| Compound | Target system | Ki |
| --- | --- | --- |
| N=C(c1ccc(C(=O)Nc2ccc(Cl)cc2C(=O)Nc2ccc(Cl)cn2)cc1)N1CCCC(C(=O)O)C1 (stereo unspecified) | Voltage-gated inwardly rectifying potassium channel KCNH2 (Homo sapiens) | > 10 µM |

----------
# Target system: Melanin-concentrating hormone receptor 1 (Homo sapiens)
# Sequence (Q99705 whole entry): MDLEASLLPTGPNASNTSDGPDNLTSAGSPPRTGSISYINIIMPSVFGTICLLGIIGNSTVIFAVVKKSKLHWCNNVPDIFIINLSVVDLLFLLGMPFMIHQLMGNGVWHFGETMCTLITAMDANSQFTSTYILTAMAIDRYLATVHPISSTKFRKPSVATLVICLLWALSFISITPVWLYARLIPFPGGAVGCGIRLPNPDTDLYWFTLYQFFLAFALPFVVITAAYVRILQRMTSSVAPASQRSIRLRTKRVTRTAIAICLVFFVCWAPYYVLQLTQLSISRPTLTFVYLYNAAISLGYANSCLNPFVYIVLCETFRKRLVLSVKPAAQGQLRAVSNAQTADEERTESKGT
# Experiment summary: Antagonist activity at human MCHR1 assessed inhibition of MCH-mediated intracellular Ca2+ calcium mobilization by aequorin assay
# Format: functional, cell-based

| Structure notation | Target system | IC50 |
| --- | --- | --- |
| C[C@H]1c2c([nH]c3ccc(C(F)(F)F)cc23)C[C@H]2CCN(CCC3(C(=O)O)CCCCC3)C[C@@H]21 | Melanin-concentrating hormone receptor 1 (Homo sapiens) | 1.2 nM |

----------
# Experiment summary: Mean residence time in rat at 3 mg/kg, po
# Assay type: ADME, organism-based
# Set-up: dose 3 mg/kg, route oral
# Reported conditions: in vivo
Assay endpoint: MRT (h)

| Structure notation | Readout number |
| --- | --- |
| C[C@H]1c2c([nH]c3ccc(C(F)(F)F)cc23)C[C@H]2CCN(CCC3(C(=O)O)CCCCC3)C[C@@H]21 | 7.9 |

----------
# Experiment summary: Oral bioavailability in rat at 3 mg/kg
# Format: ADME, organism-based
# Reported conditions: in vivo

| Structure notation | Units | bioavailability |
| --- | --- | --- |
| C[C@H]1c2c([nH]c3ccc(C(F)(F)F)cc23)C[C@H]2CCN(CCC3(C(=O)O)CCCCC3)C[C@@H]21 | % | 70 |

----------
# Experiment summary: Clearance in rat at 0.5 mg/kg, iv
# Format: ADME, organism-based
# Parameters: dose 0.5 mg/kg, route intravenous
# Reported conditions: in vivo
Assay endpoint: clearance (mL/min/kg)

| Structure notation | Units | Readout number |
| --- | --- | --- |
| C[C@H]1c2c([nH]c3ccc(C(F)(F)F)cc23)C[C@H]2CCN(CCC3(C(=O)O)CCCCC3)C[C@@H]21 | mL/min/kg | 9.17 |

----------
Form field: IC50 (one value per entry).
# Target system: UniProtKB Q99705
# Experiment summary: Displacement of [125I]-MCH from MCHR1 after 2 hrs by scintillation counting

| Structure notation | IC50 / nM |
| --- | --- |
| C[C@H]1c2c([nH]c3ccc(C(F)(F)F)cc23)C[C@H]2CCN(CCCC3(C(=O)O)CCOCC3)C[C@@H]21 | 40 |
| C[C@H]1c2c([nH]c3ccc(C(F)(F)F)cc23)C[C@H]2CCN(CCC3(C(=O)O)CCCCC3)C[C@@H]21 | 0.6 |
| C[C@H]1c2c([nH]c3ccc(C(F)(F)F)cc23)C[C@H]2CCN(CCC3(C(=O)O)CCOCC3)C[C@@H]21 | 9 |
